Tested on: Escherichia coli
Experiment: Antibacterial activity against Escherichia coli JM83 harboring pHF022 containing aminoglycoside 2''-2a phosphotransferase N196D/D268N mutant by broth microdilution method
Assay type: functional
Would you kindly list MIC for each of these molecules?
Hi! Could you send only the number? It should be in µg/mL, unit omitted.

# returns recorded MIC (system: Escherichia coli) for CN[C@@H]1[C@@H](O)[C@@H](O[C@@H]2[C@@H](O)[C@H](O[C@H]3O[C@H](CN)[C@@H](O)[C@H](O)[C@H]3O)[C@@H](N)C[C@H]2NC(=O)[C@@H](O)CN)OC[C@]1(C)O [ISEPAMICIN]
16

Kindly state the measured MIC obtained for NC[C@@H]1O[C@@H](O[C@H]2[C@H](O)[C@@H](O[C@H]3O[C@H](CO)[C@@H](O)[C@H](N)[C@H]3O)[C@H](N)C[C@@H]2N)[C@@H](O)[C@H](O)[C@H]1O [KANAMYCIN A] with Escherichia coli.
256

Escherichia coli / MIC / CN[C@@H]1[C@@H](O)[C@@H](O[C@@H]2[C@@H](O)[C@H](O[C@H]3O[C@H](C(C)O)[C@@H](O)[C@H](O)[C@H]3N)[C@@H](N)C[C@H]2N)OC[C@]1(C)O (single isomer, unassigned) [GENETICIN] : value?
512

Recorded MIC for NC[C@@H]1CC[C@@H](N)[C@@H](O[C@H]2[C@H](O)[C@@H](O[C@H]3O[C@H](CO)[C@@H](O)[C@H](N)[C@H]3O)[C@H](N)C[C@@H]2N)O1 [DIBEKACIN] with Escherichia coli, please?
64

Form: Entry = NC[C@H]1O[C@H](O[C@H]2[C@H](O)[C@@H](O[C@H]3O[C@H](CO)[C@@H](O)[C@H](N)[C@H]3O)[C@H](N)C[C@@H]2N)[C@H](N)C[C@@H]1O [TOBRAMYCIN] | System = Escherichia coli | MIC = ____
64

* * *

Assay: Ratio of Kcat to Km for Aminoglycoside […] 2a using ATP/GTP as second substrate by spectrophotometric assay
experimentalEndpoint: kcat/Km

Looking for the measured kcat/Km of NC[C@H]1O[C@H](O[C@H]2[C@H](O)[C@@H](O[C@H]3O[C@H](CO)[C@@H](O)[C@H](N)[C@H]3O)[C@H](N)C[C@@H]2N)[C@H](N)C[C@@H]1O , can you help?
1.7 ×10⁷ /M/s

Fill blank: measured kcat/Km of the compound Nc1ncnc2c1ncn2[C@@H]1O[C@H](COP(=O)(O)OP(=O)(O)OP(=O)(O)O)[C@@H](O)[C@H]1O is ____.
2.7 ×10⁶ /M/s

Can you share its kcat/Km? I mean this compound: Nc1nc(=O)c2ncn([C@@H]3O[C@H](COP(=O)(O)OP(=O)(O)OP(=O)(O)O)[C@@H](O)C3O)c2[nH]1 (single isomer, unassigned)
1.3 ×10⁵ /M/s

* * *

Assay: Activity of Aminoglycoside […] 2a using ATP/GTP as second substrate by spectrophotometric assay
experimentalEndpoint: kcat

Reported kcat for NCC[C@H](O)C(=O)N[C@@H]1C[C@H](N)[C@@H](O[C@H]2O[C@H](CN)[C@@H](O)[C@H](O)[C@H]2O)[C@H](O)[C@H]1O[C@H]1O[C@H](CO)[C@@H](O)[C@H](N)[C@H]1O : what is it?
8.3 s⁻¹

Using the record for CN[C@@H]1[C@@H](O)[C@@H](O[C@@H]2[C@@H](O)[C@H](O[C@H]3O[C@H](CN)[C@@H](O)[C@H](O)[C@H]3O)[C@@H](N)C[C@H]2NC(=O)[C@@H](O)CN)OC[C@]1(C)O , report its kcat.
5.7 s⁻¹

Name the recorded kcat for Nc1ncnc2c1ncn2[C@@H]1O[C@H](COP(=O)(O)OP(=O)(O)OP(=O)(O)O)[C@@H](O)[C@H]1O .
43.3 s⁻¹

Which kcat value is on record for NC[C@@H]1O[C@@H](O[C@H]2[C@H](O)[C@@H](O[C@H]3O[C@H](CO)[C@@H](O)[C@H](N)[C@H]3O)[C@H](N)C[C@@H]2N)[C@@H](O)[C@H](O)[C@H]1O ?
45.1 s⁻¹

# query: kcat of entry NC[C@@H]1CC[C@@H](N)[C@@H](O[C@H]2[C@H](O)[C@@H](O[C@H]3O[C@H](CO)[C@@H](O)[C@H](N)[C@H]3O)[C@H](N)C[C@@H]2N)O1
17.1 s⁻¹

So what's the measured kcat for this one? NC[C@H]1O[C@H](O[C@H]2[C@H](O)[C@@H](O[C@H]3O[C@H](CO)[C@@H](O)[C@H](N)[C@H]3O)[C@H](N)C[C@@H]2N)[C@H](N)C[C@@H]1O
26.1 s⁻¹

Looking for the measured kcat of Nc1nc(=O)c2ncn([C@@H]3O[C@H](COP(=O)(O)OP(=O)(O)OP(=O)(O)O)[C@@H](O)C3O)c2[nH]1 (single isomer, unassigned) , can you help?
9.4 s⁻¹

* * *

Assay: Activity of Aminoglycoside […] 2a R92H/D268N mutant using ATP/GTP as second substrate by spectrophotometric assay
Rule: kcat under 20 s⁻¹ gives false, otherwise true.

Does the molecule Nc1ncnc2c1ncn2[C@@H]1O[C@H](COP(=O)(O)OP(=O)(O)OP(=O)(O)O)[C@@H](O)[C@H]1O have recorded kcat that is 20 s⁻¹ or more?
true

Is kcat at least 20 s⁻¹? Consider NCC[C@H](O)C(=O)N[C@@H]1C[C@H](N)[C@@H](O[C@H]2O[C@H](CN)[C@@H](O)[C@H](O)[C@H]2O)[C@H](O)[C@H]1O[C@H]1O[C@H](CO)[C@@H](O)[C@H](N)[C@H]1O [AMIKACIN]
true

Tell me whether kcat is at least 20 s⁻¹ here: CN[C@@H]1[C@@H](O)[C@@H](O[C@@H]2[C@@H](O)[C@H](O[C@H]3O[C@H](CN)[C@@H](O)[C@H](O)[C@H]3O)[C@@H](N)C[C@H]2NC(=O)[C@@H](O)CN)OC[C@]1(C)O [ISEPAMICIN]
false

Exam item: decide whether the reported kcat for NC[C@@H]1CC[C@@H](N)[C@@H](O[C@H]2[C@H](O)[C@@H](O[C@H]3O[C@H](CO)[C@@H](O)[C@H](N)[C@H]3O)[C@H](N)C[C@@H]2N)O1 [DIBEKACIN] is at least 20 s⁻¹.
true

Determine whether this molecule has kcat no lower than 20 s⁻¹: Nc1nc(=O)c2ncn([C@@H]3O[C@H](COP(=O)(O)OP(=O)(O)OP(=O)(O)O)[C@@H](O)C3O)c2[nH]1 (single isomer, unassigned)
false

In plain terms: is recorded kcat at least 20 s⁻¹ for NC[C@H]1O[C@H](O[C@H]2[C@H](O)[C@@H](O[C@H]3O[C@H](CO)[C@@H](O)[C@H](N)[C@H]3O)[C@H](N)C[C@@H]2N)[C@H](N)C[C@@H]1O [TOBRAMYCIN] ?
true

* * *

Experiment: Activity of Aminoglycoside […] 2a N196D/D268N mutant using ATP/GTP as second substrate by spectrophotometric assay
What Km was measured for each of the following?

I am curious: what Km value has been reported for NC[C@@H]1CC[C@@H](N)[C@@H](O[C@H]2[C@H](O)[C@@H](O[C@H]3O[C@H](CO)[C@@H](O)[C@H](N)[C@H]3O)[C@H](N)C[C@@H]2N)O1 ?
< 1 µM

Quick one: Km of NC[C@@H]1O[C@@H](O[C@H]2[C@H](O)[C@@H](O[C@H]3O[C@H](CO)[C@@H](O)[C@H](N)[C@H]3O)[C@H](N)C[C@@H]2N)[C@@H](O)[C@H](O)[C@H]1O ?
< 1 µM

Would you kindly share the measured Km for NC[C@H]1O[C@H](O[C@H]2[C@H](O)[C@@H](O[C@H]3O[C@H](CO)[C@@H](O)[C@H](N)[C@H]3O)[C@H](N)C[C@@H]2N)[C@H](N)C[C@@H]1O ?
< 1 µM

The values you see were collected from ChEMBL document CHEMBL1255425.
